We begin with a simple list: items and their reported IC50.
assayed target: UniProt:O96013
Sequence (O96013 whole entry): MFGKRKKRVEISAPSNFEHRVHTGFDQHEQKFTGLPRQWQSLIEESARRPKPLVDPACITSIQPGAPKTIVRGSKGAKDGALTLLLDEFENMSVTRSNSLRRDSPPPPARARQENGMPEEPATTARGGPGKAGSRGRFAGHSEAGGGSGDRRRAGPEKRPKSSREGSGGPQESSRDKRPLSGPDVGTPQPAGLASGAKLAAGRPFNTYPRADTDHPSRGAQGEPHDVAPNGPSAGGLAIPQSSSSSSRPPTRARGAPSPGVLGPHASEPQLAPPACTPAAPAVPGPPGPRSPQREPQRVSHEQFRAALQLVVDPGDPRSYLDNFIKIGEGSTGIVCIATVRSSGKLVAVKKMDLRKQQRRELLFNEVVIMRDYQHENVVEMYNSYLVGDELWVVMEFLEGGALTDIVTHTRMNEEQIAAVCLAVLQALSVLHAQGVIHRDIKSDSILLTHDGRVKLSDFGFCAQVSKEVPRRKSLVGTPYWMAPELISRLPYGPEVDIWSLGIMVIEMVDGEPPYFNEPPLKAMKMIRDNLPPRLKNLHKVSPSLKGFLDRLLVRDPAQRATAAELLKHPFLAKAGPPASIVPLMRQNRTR
method description: Z'Lyte fluorescence-based (FRET) PAK kinase assay, PAK4
Type: biochemical
condition context: Table 1 of Example 100; 5 μM ATP
Protocol: A fluorescence-based assay format is used to determine IC50 values of test compounds in vitro. Purified PAK kinase is incubated with ATP, and a test compound at various concentrations and a substrate peptide containing two fluorophores. […] Plates are analyzed in a standard fluorescence plate reader (Tecan or equivalent) using an excitation wavelength of 400 nn and emission wavelengths of 445 nm and 520 nm. Inhibition of kinase reaction is determined by emission ratio=emission@445 nm/emission@520 nm […]

{"columns": ["compound", "meas value"],
 "data": [
  ["O=c1ccc2cnc(Nc3ccc(N4CCNCC4)c(F)c3)nc2n1C1CCc2ccccc2C1 (centres unmarked) [Compound 22]", "< 1 µM"],
  ["CN1CCN(c2ccc(Nc3ncc4ccc(=O)n(Cc5ccccc5F)c4n3)cc2)CC1 [Compound 35]", "1 to 10 µM"],
  ["CN(C)CC(c1ccccc1)n1c(=O)ccc2cnc(Nc3ccc(N4CCOCC4)cc3)nc21 (centres unmarked) [Compound 16]", "> 10 µM"],
  ["CN1CCN(c2ccc(Nc3ncc4ccc(=O)n(Cc5ccccc5OC(F)F)c4n3)cc2)CC1 [Compound 44]", "< 1 µM"],
  ["COc1ccccc1Cn1c(=O)ccc2cnc(Nc3ccc(N4CCN(C)CC4)cc3)nc21 [Compound 34]", "1 to 10 µM"],
  ["CN1CCN(c2ccc(Nc3ncc4ccc(=O)n(Cc5ccccc5OC(F)(F)F)c4n3)cc2)CC1 [Compound 41]", "1 to 10 µM"]
]}

Shift focus to the following entry.
Query :: Requested read-out IC50, target or system UniProt:O96013, entry Cc1cccnc1Cn1c(=O)ccc2cnc(Nc3ccc(N4CCN(C)CC4)cc3)nc21 [Compound 52]
Result :: 1 to 10 µM

* * *

We begin with a simple list: items and their reported pIC50.
assayed target: UniProt Q13153
Sequence (Q13153 whole entry): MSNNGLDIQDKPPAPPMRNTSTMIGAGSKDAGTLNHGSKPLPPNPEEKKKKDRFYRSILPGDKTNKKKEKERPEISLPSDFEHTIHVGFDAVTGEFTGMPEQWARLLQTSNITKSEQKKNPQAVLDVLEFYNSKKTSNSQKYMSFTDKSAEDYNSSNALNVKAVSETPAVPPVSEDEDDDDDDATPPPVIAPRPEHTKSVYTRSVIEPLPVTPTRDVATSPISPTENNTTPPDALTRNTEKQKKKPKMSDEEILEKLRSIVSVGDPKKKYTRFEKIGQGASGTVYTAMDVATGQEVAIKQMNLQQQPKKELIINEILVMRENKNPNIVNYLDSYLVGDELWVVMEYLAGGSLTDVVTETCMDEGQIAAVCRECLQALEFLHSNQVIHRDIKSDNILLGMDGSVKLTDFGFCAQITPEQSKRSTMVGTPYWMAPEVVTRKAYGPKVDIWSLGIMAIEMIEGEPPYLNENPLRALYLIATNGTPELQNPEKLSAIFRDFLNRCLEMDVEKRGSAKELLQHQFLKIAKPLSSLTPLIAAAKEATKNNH
method description: Z'Lyte fluorescence-based (FRET) PAK kinase assay, PAK1
Format: biochemical
condition context: Table 1 of Example 100; 50 μM ATP
pIC50: −log10 of the molar value.

Please review the entries below; each comes with its answer.
{"columns": ["molecule", "assayed target", "pIC50"],
 "data": [
  ["CN1CCN(c2ccc(Nc3ncc4ccc(=O)n(Cc5c(F)cccc5C(F)(F)F)c4n3)cc2)CC1", "UniProt Q13153", "> 6.00"],
  ["CN1CCN(c2ccc(Nc3ncc4ccc(=O)n(Cc5ccccn5)c4n3)cc2)CC1", "UniProt Q13153", "5.00 to 6.00"],
  ["O=c1c(-c2ccccc2)cc2cnc(Nc3ccc(NC4CCCNC4)cc3)nc2n1Cc1ccccc1C(F)(F)F (stereo not shown)", "UniProt Q13153", "> 6.00"],
  ["CN1CCN(c2ccc(Nc3ncc4ccc(=O)n([C@@H]5CCCc6ccccc65)c4n3)cc2)CC1", "UniProt Q13153", "5.00 to 6.00"],
  ["O=c1ccc2cnc(Nc3ccc(N4CCNCC4)c(F)c3)nc2n1C1Cc2ccccc2C1", "UniProt Q13153", "> 6.00"]
]}

Query :: Could you share which pIC50 value was measured for CN1CCN(c2ccc(Nc3ncc4ccc(=O)n(C5CCc6ccccc65)c4n3)cc2)CC1 (stereo not shown) ?
Result :: > 6.00

Query :: Entry to check: CSc1cccc(F)c1Cn1c(=O)ccc2cnc(Nc3ccc(N4CCN(C)CC4)cc3)nc21
Result :: > 6.00

Query :: Entry to check: CN1CCN(c2ccc(Nc3ncc4ccc(=O)n(Cc5ccccc5Cl)c4n3)cc2)CC1
Result :: > 6.00

Query :: Entry to check: O=c1ccc2cnc(Nc3ccc(N4CCNCC4)cc3)nc2n1Cc1ccccc1C(F)(F)F
Result :: > 6.00

Query :: Entry to check: O=c1ccc2cnc(Nc3ccc(N4CCNCC4)c(F)c3)nc2n1C1CCc2ccccc2C1 (stereo not shown)
Result :: > 6.00

Query :: Entry to check: O=c1c(-c2ccccc2)cc2cnc(Nc3ccc(N4CCNCC4)cc3)nc2n1Cc1ccccc1C(F)(F)F
Result :: > 6.00

// provenance: patent US20120270844A1
